Where do these numbers come from? They come from PubChem BioAssay (Tox21).

# ASSAY_DETAILS: qHTS assay for small molecules that induce genotoxicity in human embryonic kidney cells expressing luciferase-tagged ATAD5 - cell viability (AID 651634); further: nearly all actives have a fitted effect of over 25% in size
# EXPERIMENTAL_CONTEXT: HEK293T ATAD5-luc cells viability, CellTiter-Fluor, 15.5 h; series mostly up to 83.3 µM
Records with an inconclusive call do not appear. Activity calls are given as the source filed them. The call rests on the fitted dose curve.
READOUT_NAME: outcome

| COMPOUND | READOUT_NAME | EXPERIMENTAL_VALUE |
| --- | --- | --- |
| CC(=O)Oc1cccc(C(=O)O)c1OC(C)=O | outcome | inactive |
| C=C(NC(=O)C(=C)NC(=O)c1csc(C2=N[C@@H]3c4csc(n4)[C@H]4NC(=O)c5csc(n5)[C@H]([C@](C)(O)[C@@H](C)O)NC(=O)[C@H]5CSC(=N5)C(=CC)NC(=O)C([C@@H](C)O)NC(=O)c5csc(n5)[C@]3(CC2)NC(=O)[C@H](C)NC(=O)C(=C)NC(=O)[C@H](C)NC(=O)C([C@@H](C)CC)NC2C=Cc3c([C@H](C)O)cc(nc3C2O)C(=O)O[C@@H]4C)n1)C(N)=O (some centres not stated) | outcome | inactive |

* * *

# ASSAY_DETAILS: qHTS assay for identifying genotoxic compounds that show differential cytotoxicity against isogenic chicken DT40 cell lines with known DNA damage response pathways - wild type cell line (AID 743012); further: nearly all actives have a fitted effect of over 60% in size
# EXPERIMENTAL_CONTEXT: DT40 wild type chicken cells viability, CellTiter-Glo, 40 h; series mostly up to 68.4 µM
Records with an inconclusive call do not appear. Calls of active or inactive are those of the source. Calls come from the whole dose curve; as a rule, active = well fitted cell-killing curve with a large enough effect in the repeat runs; inconclusive = weak or mixed curves, or effect the other way; inactive = no such curve, though single readings can be large or run the other way.
Valid outcomes are listed here; reply with one: active, inactive

Q. Assay outcome for CCCCCCCCCCCCCCCCCC(=O)OCC(C)O (stereo not given) : what was it?
A. inactive

Q. Assay outcome for C[Se]CCC(N)C(=O)O (stereo not given) : what was it?
A. inactive

Q. Assay outcome for O=c1oc2cc(O)ccc2s1 : what was it?
A. inactive

Q. Assay outcome for CC(=O)O[C@H]1C[C@@H]2CC[C@@H]3[C@H](CC[C@@]4(C)[C@H]3C[C@H](N3CC[N+](C)(C)CC3)[C@@H]4OC(C)=O)[C@@]2(C)C[C@@H]1N1CC[N+](C)(C)CC1 : what was it?
A. inactive

Q. Assay outcome for CCOC(=O)Nc1ccc2c(c1)N(C(=O)CN(C)C)c1ccccc1CC2 : what was it?
A. active

* * *

# ASSAY_DETAILS: qHTS assay to test for compound auto fluorescence at 590 nm (red) in HepG2 cells (AID 720674)
# EXPERIMENTAL_CONTEXT: HepG2 autofluorescence, red 540/590 nm, 1 h; series mostly up to 46 µM
Active and inactive are the calls of the source. Calls follow the shape of the dose curve; as a rule, active = well fitted curve in the direction sought with a large enough effect in the repeat runs; inconclusive = weak or mixed curves; inactive = flat fitted curve, though single readings scatter.
Valid outcomes are listed here; reply with one: active, inactive

Q. Assay outcome for CCCc1nc(C(C)(C)O)c(C(=O)OCc2oc(=O)oc2C)n1Cc1ccc(-c2ccccc2-c2nn[nH]n2)cc1 : what was it?
A. inactive

Q. Assay outcome for CCCC(=O)N1CCCN(c2nc(N)c3cc(OC)c(OC)cc3n2)CC1 : what was it?
A. inactive

Q. Assay outcome for Clc1cc(Cl)c(OCC#CI)cc1Cl : what was it?
A. inactive

Q. Assay outcome for C/C=C(/CC[C@@H](C)[C@H]1CC[C@H]2C3=CC[C@H]4[C@H](C)[C@@H](O)CC[C@]4(C)[C@H]3CC[C@]12C)C(C)C : what was it?
A. inactive

Q. Assay outcome for COCC(=O)Nc1cc(Sc2ccccc2)ccc1N=C(NC(=O)OC)NC(=O)OC : what was it?
A. inactive

Q. Assay outcome for O=[n+]1ccn([O-])c2ccccc21 : what was it?
A. inactive

Q. Assay outcome for O=S(=O)(O)c1cc(O)c2c(N=Nc3ccc(Nc4ccccc4)c4c(S(=O)(=O)O)cccc34)cc(S(=O)(=O)O)cc2c1 : what was it?
A. inactive

Q. Assay outcome for N=C(N)c1ccc(OCCCOc2ccc(C(=N)N)cc2Br)c(Br)c1 : what was it?
A. inactive

Q. Assay outcome for O=c1[nH]cnc2[nH]cc(CN3CCCCC3)c12 : what was it?
A. inactive

Q. Assay outcome for CC[C@H]1NC(=O)[C@@H](NC(=O)c2ncccc2O)[C@@H](C)OC(=O)[C@H](c2ccccc2)NC(=O)[C@@H]2CC(=O)CCN2C(=O)[C@H](Cc2ccccc2)N(C)C(=O)[C@@H]2CCCN2C1=O : what was it?
A. inactive

Q. Assay outcome for C=C(NC(=O)C(=C)NC(=O)c1csc(C2=N[C@@H]3c4csc(n4)[C@H]4NC(=O)c5csc(n5)[C@H]([C@](C)(O)[C@@H](C)O)NC(=O)[C@H]5CSC(=N5)C(=CC)NC(=O)C([C@@H](C)O)NC(=O)c5csc(n5)[C@]3(CC2)NC(=O)[C@H](C)NC(=O)C(=C)NC(=O)[C@H](C)NC(=O)C([C@@H](C)CC)NC2C=Cc3c([C@H](C)O)cc(nc3C2O)C(=O)O[C@@H]4C)n1)C(N)=O (stereo partly specified) : what was it?
A. inactive

Q. Assay outcome for O=C(O)c1c(Cl)c(Cl)c(Cl)c(Cl)c1-c1c2cc(I)c(=O)c(I)c-2oc2c(I)c(O)c(I)cc12 : what was it?
A. active

Q. Assay outcome for Cc1onc(-c2ccccc2)c1C(=O)N[C@@H]1C(=O)N2[C@@H]1SC(C)(C)[C@@H]2C(=O)O : what was it?
A. inactive

Q. Assay outcome for NNc1nnc(Cc2ccncc2)c2ccccc12 : what was it?
A. inactive

Q. Assay outcome for N#CC(c1ccc(Cl)cc1)c1c(Cl)cc(-n2ncc(=O)[nH]c2=O)cc1Cl (stereo unspecified) : what was it?
A. inactive

Q. Assay outcome for Nc1ncnc2c1ncn2CCOCP(=O)(O)O : what was it?
A. inactive
